details: 343.15 K; 101.33 kPa; Liquid
Outcome label depends on viscosity relative to 100 mPa·s: at/above gives 1, below gives 0.

Would you please look over these solved cases?
CCCCCCn1cc[n+](CCC#N)c1.O=C([O-])c1cccc(S(=O)(=O)O)c1 [3-(2-cyanoethyl)-1-hexyl-1H-imidazolium 3-sulfobenzoate]; 1
CCCCCCn1cc[n+](CCC#N)c1.O=S(=O)([O-])c1ccccc1 [3-(2-cyanoethyl)-1-hexyl-1H-imidazolium benzenesulfonate]; 1
CCCCCCCCCCCCOS(=O)(=O)[O-].CCCCCCn1cc[n+](CCC#N)c1 [3-(2-cyanoethyl)-1-hexyl-1H-imidazolium dodecyl sulfate]; 1
CCCCCCn1cc[n+](CCC#N)c1.O=S(=O)([O-])C(F)(F)F; 0

Moving on to another molecule below.
Query block: Answer whether viscosity of CCCCC(CC)COC(=O)CC(C(=O)OCC(CC)CCCC)S(=O)(=O)[O-].CCCCCC[n+]1ccn(CCC#N)c1 (stereo not given) is greater than or equal to 100 mPa·s.
Result block: 1

====

We begin with a simple list: items and their reported refractive index.
assay: refractive index (Na D-line) (dimensionless); conditions: 323.15 K; 101.33 kPa; Liquid; Standard Abbe refractometry
Hey, just send me the number, nothing else.

Example entries begin here.
CCCCC(CC)COC(=O)CC(C(=O)OCC(CC)CCCC)S(=O)(=O)[O-].CCCCCC[n+]1ccn(CCC#N)c1 (stereo not given); 1.47305
CCCCCCn1cc[n+](CCC#N)c1.O=C([O-])c1cccc(S(=O)(=O)O)c1 [3-(2-cyanoethyl)-1-hexyl-1H-imidazolium 3-sulfobenzoate]; 1.518
CCCCCCn1cc[n+](CCC#N)c1.O=S(=O)([O-])C(F)(F)F; 1.52464
CCCCCCCCCCCCOS(=O)(=O)[O-].CCCCCCn1cc[n+](CCC#N)c1 [3-(2-cyanoethyl)-1-hexyl-1H-imidazolium dodecyl sulfate]; 1.47702

Query block: Fill in reported refractive index for this entry: CCCCCCn1cc[n+](CCC#N)c1.O=S(=O)([O-])c1ccccc1 [3-(2-cyanoethyl)-1-hexyl-1H-imidazolium benzenesulfonate]
Result block: 1.52145

====

conditions: 313.15 K; 101.33 kPa; Liquid; Vibrating tube method
We begin with a simple list: items and their reported mass density.
Express your answer in kg/m3, writing the number without its unit.

Example entries begin here.
CCCCCCn1cc[n+](CCC#N)c1.O=S(=O)([O-])C(F)(F)F; 1274.6
CCCCC(CC)COC(=O)CC(C(=O)OCC(CC)CCCC)S(=O)(=O)[O-].CCCCCC[n+]1ccn(CCC#N)c1 (stereo not given); 1078.3
CCCCCCn1cc[n+](CCC#N)c1.O=C([O-])c1cccc(S(=O)(=O)O)c1 [3-(2-cyanoethyl)-1-hexyl-1H-imidazolium 3-sulfobenzoate]; 1234.7

Query block: Fill in reported mass density for this entry: CCCCCCn1cc[n+](CCC#N)c1.O=S(=O)([O-])c1ccccc1 [3-(2-cyanoethyl)-1-hexyl-1H-imidazolium benzenesulfonate]
Result block: 1212.8

Query block: Fill in reported mass density for this entry: CCCCCCCCCCCCOS(=O)(=O)[O-].CCCCCCn1cc[n+](CCC#N)c1 [3-(2-cyanoethyl)-1-hexyl-1H-imidazolium dodecyl sulfate]
Result block: 1088

====

settings: 338.15 K; 101.33 kPa; Liquid
observable: viscosity (mPa·s)
Express your answer in mPa·s, writing the number without its unit.

Query block: Fill in reported viscosity for this entry: CCCCCCn1cc[n+](CCC#N)c1.O=S(=O)([O-])c1ccccc1 [3-(2-cyanoethyl)-1-hexyl-1H-imidazolium benzenesulfonate]
Result block: 181
